Molecular target: PD-1/PD-L1 protein/protein interaction (recombinant human PD-L1 protein (19-238), recombinant human PD-1 protein (25-167)) (Homo sapiens)
Construct: Recombinant human PD-L1 protein (19-238) with a His-tag at the C-terminus; PD1-H5257 (PD-1-Fc)
Sequence (Q9NZQ7 19-238): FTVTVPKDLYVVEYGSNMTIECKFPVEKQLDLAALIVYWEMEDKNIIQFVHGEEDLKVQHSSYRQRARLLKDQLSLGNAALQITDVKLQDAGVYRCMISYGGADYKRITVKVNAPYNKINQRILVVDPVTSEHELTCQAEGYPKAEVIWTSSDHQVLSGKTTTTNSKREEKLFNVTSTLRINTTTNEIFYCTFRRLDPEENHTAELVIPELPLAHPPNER
Assay: PD-1/PD-L1 Homogeneous Time-Resolved Fluorescence (HTRF) Binding Assay
Conditions: 25° C., PBS buffer (pH 7.4), 40 minutes preincubation with inhibitors
Listed here are compounds together with their documented IC50.

A selection of reference data follows.
Cc1c(Nc2nccc3cc(CN4CC[C@](C)(O)C4)cnc23)cccc1-c1cccc(NC(=O)c2nc3c(n2C)CCN(C2CCC(C(=O)O)CC2)C3)c1Cl (stereo partly drawn) : ≤ 10 nM
Cc1c(Nc2nccc3cc(CN4CC[C@@H](O)C4)cnc23)cccc1-c1cccc(Nc2ncnc3cc(CNCC(C)(C)O)cnc23)c1C : ≤ 10 nM

Lookup result for Cc1c(Nc2nccc3cc(CN4CC[C@@H](O)C4)cnc23)cccc1-c1cccc(Nc2nccc3cc(CN4CC(C(=O)O)C4)cnc23)c1Cl ; measured IC50: ≤ 10 nM

Consider Cc1c(Nc2nccc3cc(CN4CC[C@@H](O)C4)cnc23)cccc1-c1cccc(Nc2ncnc3cc(CNCCO)cnc23)c1C . Its measured IC50 is ≤ 10 nM

Looking up CCN(C)CC(=O)N1Cc2nc(-c3cccc(-c4cccc(Nc5nccc6cc(CN7CC8CC7CC8C(=O)O)cnc56)c4Cl)c3C)sc2C1 (stereo not drawn) , I found its IC50 recorded as ≤ 10 nM

Notebook: Cc1c(Nc2nccc3cc(CN[C@@H](C)CO)cnc23)cccc1-c1cccc(NC(=O)c2nc3c(n2C)CCN(C[C@H]2CC[C@H](C(=O)O)CC2)C3)c1Cl , IC50 read as ≤ 10 nM

// IC50 value for Cc1c(Nc2ncnc3cc(CN4CC[C@@H](O)C4)cnc23)cccc1-c1cccc(NC(=O)c2nc3c(n2C)CCN(C2CCC(C)(C(=O)O)CC2)C3)c1Cl (single isomer, unassigned) [Example 68-peak1] : ≤ 10 nM

Recorded IC50 (compound Cc1c(Nc2nccc3cc(CN4CC[C@@H](C(=O)O)C4)cnc23)cccc1-c1cccc(-c2nc3c(s2)CNCC3)c1C ): ≤ 10 nM

IC50 reported for this compound Cc1c(Nc2nccc3cc(CNCCO)cnc23)cccc1-c1cccc(Nc2nccc3cc(CN4CC[C@@H](C(=O)O)C4)cnc23)c1C : ≤ 10 nM

For Cc1c(Nc2nccc3cc(CN4CC[C@@H](O)C4)cnc23)cccc1-c1cccc(-c2nc3c(o2)CN(C(=O)CN2CC[C@H](C(=O)O)C2)C3)c1C the compound record lists IC50 as ≤ 10 nM

Recorded IC50 (compound Cc1c(Nc2ncnc3cc(CN4CC[C@@H](O)C4)cnc23)cccc1-c1cccc(NC(=O)c2nc3c(n2C)CCN(C2CCC(C)(C(=O)O)CC2)C3)c1Cl (single isomer, unassigned) [Example 68-peak2] ): ≤ 10 nM

Lookup result for Cc1c(COc2cc(OCc3cncc(C#N)c3)c(CN3CCCC[C@H]3C(=O)O)cc2Cl)cccc1-c1cccc(Nc2nccc3cc(CN4CC[C@@H](O)C4)cnc23)c1C ; measured IC50: ≤ 10 nM
